Target: recombinant human DPPI (Cathepsin C) (Homo sapiens (Human), UniProt P53634)
Sequence (P53634 231-394): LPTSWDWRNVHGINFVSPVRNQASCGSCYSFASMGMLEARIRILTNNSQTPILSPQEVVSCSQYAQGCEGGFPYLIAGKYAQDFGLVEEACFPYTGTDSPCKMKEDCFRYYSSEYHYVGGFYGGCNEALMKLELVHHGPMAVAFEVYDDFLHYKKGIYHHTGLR
Sequence (P53634 395-463): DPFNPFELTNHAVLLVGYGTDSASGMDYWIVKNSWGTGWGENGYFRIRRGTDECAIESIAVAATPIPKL
Sequence (P53634 25-134): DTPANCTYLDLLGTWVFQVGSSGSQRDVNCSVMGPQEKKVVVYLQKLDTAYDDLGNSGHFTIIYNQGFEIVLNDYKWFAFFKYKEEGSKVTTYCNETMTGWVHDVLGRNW
Test: Inhibition of human DPPI (Cathepsin C)
Details: substrate Gly-Arg-AMC
Description: Inhibition of Human DPPI (Cathepsin C) Bovine serum albumin (BSA; Prod. No. A3059) and Dithiothreitol (DTT; Prod. No D0632) were from Sigma. […] The DPP1 inhibitor Gly-Phe-DMK was purchased from MP Biomedicals (Prod.-No. 03DK00625). The recombinant human DPPI was purchased from Prozymex. All other materials were of highest grade commercially available. […]
pIC50: −log10 of the molar value.
// reported pIC50 per item

{"Molecule": "CC(=O)N1CCC(Cn2cc(-c3ccc(C[C@@H](C#N)NC(=O)[C@H]4N[C@@H]5CC[C@H]4C5)c(F)c3)cn2)CC1", "Assay Target": "recombinant human DPPI (Cathepsin C) (Homo sapiens (Human), UniProt P53634)", "pIC50": 8.09}
{"Molecule": "CS(=O)(=O)c1cccc(-c2ccc(C[C@@H](C#N)NC(=O)[C@H]3N[C@@H]4CC[C@H]3C4)c(F)c2)c1", "Assay Target": "recombinant human DPPI (Cathepsin C) (Homo sapiens (Human), UniProt P53634)", "pIC50": 8.85}
{"Molecule": "N#C[C@H](Cc1ccc(-c2ccsc2)cc1F)NC(=O)[C@H]1N[C@@H]2CC[C@H]1C2", "Assay Target": "recombinant human DPPI (Cathepsin C) (Homo sapiens (Human), UniProt P53634)", "pIC50": 8.57}
{"Molecule": "N#C[C@H](Cc1ccc(-c2cnn(CC3CCOCC3)c2)cc1F)NC(=O)[C@H]1N[C@@H]2CC[C@H]1C2", "Assay Target": "recombinant human DPPI (Cathepsin C) (Homo sapiens (Human), UniProt P53634)", "pIC50": 8.08}
{"Molecule": "CCn1cc(-c2ccc(C[C@@H](C#N)NC(=O)[C@H]3N[C@@H]4CC[C@H]3C4)c(F)c2)cn1", "Assay Target": "recombinant human DPPI (Cathepsin C) (Homo sapiens (Human), UniProt P53634)", "pIC50": 8.40}
{"Molecule": "CN1CC2CCC(C1)N2c1ccc(C[C@@H](C#N)NC(=O)[C@H]2N[C@@H]3CC[C@H]2C3)c(F)c1", "Assay Target": "recombinant human DPPI (Cathepsin C) (Homo sapiens (Human), UniProt P53634)", "pIC50": 8.38}
{"Molecule": "N#C[C@H](Cc1ccc(-c2cnn(CC3CCCO3)c2)cc1F)NC(=O)[C@H]1N[C@@H]2CC[C@H]1C2 (some centres unmarked)", "Assay Target": "recombinant human DPPI (Cathepsin C) (Homo sapiens (Human), UniProt P53634)", "pIC50": 8.13}
{"Molecule": "N#C[C@H](Cc1ccc(-c2cnc3cnccn23)cc1F)NC(=O)[C@H]1N[C@@H]2CC[C@H]1C2", "Assay Target": "recombinant human DPPI (Cathepsin C) (Homo sapiens (Human), UniProt P53634)", "pIC50": 7.88}
{"Molecule": "CCN1CC=C(c2ccc(C[C@@H](C#N)NC(=O)[C@H]3N[C@@H]4CC[C@H]3C4)c(F)c2)CC1", "Assay Target": "recombinant human DPPI (Cathepsin C) (Homo sapiens (Human), UniProt P53634)", "pIC50": 8.02}
{"Molecule": "CS(=O)(=O)Nc1cccc(-c2ccc(C[C@@H](C#N)NC(=O)[C@H]3N[C@H]4C[C@@H]3[C@@H]3C[C@@H]34)c(F)c2)c1", "Assay Target": "recombinant human DPPI (Cathepsin C) (Homo sapiens (Human), UniProt P53634)", "pIC50": 7.93}
{"Molecule": "C[S+]([O-])c1cc(=O)n(-c2ccc(C[C@@H](C#N)NC(=O)[C@H]3N[C@@H]4CC[C@H]3C4)c(F)c2)cc1F (some centres unmarked)", "Assay Target": "recombinant human DPPI (Cathepsin C) (Homo sapiens (Human), UniProt P53634)", "pIC50": 7.20}
{"Molecule": "N#C[C@H](Cc1ccc2ccccc2c1)NC(=O)[C@H]1N[C@@H]2CC[C@H]1C2", "Assay Target": "recombinant human DPPI (Cathepsin C) (Homo sapiens (Human), UniProt P53634)", "pIC50": 6.60}
{"Molecule": "CNC(=O)Cc1ccc2[nH]c(=O)c3cc(CC(C#N)NC(=O)[C@H]4N[C@@H]5CC[C@H]4C5)ccc3c2c1 (some centres unmarked)", "Assay Target": "recombinant human DPPI (Cathepsin C) (Homo sapiens (Human), UniProt P53634)", "pIC50": 8.15}
{"Molecule": "Cc1ccc(-c2ccc(C[C@@H](C#N)NC(=O)[C@H]3N[C@@H]4CC[C@H]3C4)c(F)c2)o1", "Assay Target": "recombinant human DPPI (Cathepsin C) (Homo sapiens (Human), UniProt P53634)", "pIC50": 8.40}
{"Molecule": "N#C[C@H](Cc1ccc(-c2cccc(C(N)=O)c2)cc1F)NC(=O)[C@H]1N[C@H]2C[C@@H]1[C@@H]1C[C@@H]12", "Assay Target": "recombinant human DPPI (Cathepsin C) (Homo sapiens (Human), UniProt P53634)", "pIC50": 7.52}
{"Molecule": "N#C[C@H](Cc1ccc(-c2cc[nH]n2)cc1F)NC(=O)[C@H]1N[C@@H]2CC[C@H]1C2", "Assay Target": "recombinant human DPPI (Cathepsin C) (Homo sapiens (Human), UniProt P53634)", "pIC50": 7.44}
{"Molecule": "N#C[C@H](Cc1cc2c(=O)[nH]c3cc(F)ccc3c2cc1F)NC(=O)[C@H]1N[C@@H]2CC[C@H]1C2", "Assay Target": "recombinant human DPPI (Cathepsin C) (Homo sapiens (Human), UniProt P53634)", "pIC50": 9.10}

All values here come from patent US8987249B2.
